- Protocol summary: Absorption isotherm: partial pressure of 2,2,2-trifluoroethanol over sorbent material at 70° C.
- Type: physicochemical
- Experimental setup: mass fraction of ionic liquid 0.80
Result type: Partial pressure of 2,2,2-trifluoroethanol (kPa)
Quick reminder: number only, in kPa, skip the unit.

1) CCn1cc[n+](C)c1.CS(=O)(=O)[O-] : 1.2
2) C[N+](C)(CCO)CCO.[Cl-] [Salt A] : 0.7
3) CCCCn1cc[n+](C)c1.[Br-] [BMIM Br, 1-butyl-3-methylimidazolium bromide, reference compound] : 1.6
4) CCCCn1cc[n+](C)c1.F[B-](F)(F)F [BMIM BF4, reference compound] : 18.0
5) CC(=O)[O-].CCn1cc[n+](C)c1 : 0.2

The molecule listed as CCCC[n+]1ccc(C)cc1.[Cl-] [MBP Cl, 1-butyl-4-methylpyridinium chloride] shows Partial pressure of 2,2,2-trifluoroethanol equal to 0.3

The molecule listed as CS(=O)(=O)[O-].C[N+](C)(CCO)CCO [Salt B] shows Partial pressure of 2,2,2-trifluoroethanol equal to 1.6

The molecule listed as `CCn1cc[n+](C)c1.[Cl-]` shows Partial pressure of 2,2,2-trifluoroethanol equal to 0.2
